Ketorolac (%) overview
- Measurement description: Stability study of levorotatory enantiomer of compounds in solvent (MCT)
- Format: physicochemical
- Condition notes: MCT solution, 25° C., day 0
Quantity kind: Ketorolac (%)

> print(dat)
                                   molecule  u  reading
1  CCOC(=O)OC(C)OC(=O)[C@H]1CCn2c(C(=O)c3ccccc3)ccc21 (stereo partly drawn) [N12(S)]  %     0.02
2  CC(C)OC(=O)OC(C)OC(=O)[C@H]1CCn2c(C(=O)c3ccccc3)ccc21 (stereo partly drawn) [N2(S)]  %     0.16
3  CCOC(=O)OC(CC)OC(=O)[C@H]1CCn2c(C(=O)c3ccccc3)ccc21 (stereo partly drawn) [N15(S)]  %     0.03
4  CCC(OC(=O)OC(C)C)OC(=O)[C@H]1CCn2c(C(=O)c3ccccc3)ccc21 (stereo partly drawn) [N16(S)]  %     0.02

* * *

- Condition notes: human, 0 min, 97.6 µM
Quantity kind: Content of ketorolac % (%)

> print(dat)
                                   compound  reading
1  CCC(OC(=O)OC(C)C)OC(=O)C1CCn2c(C(=O)c3ccccc3)ccc21 (stereo not drawn)        0
2  CCOC(=O)OC(C)OC(=O)C1CCn2c(C(=O)c3ccccc3)ccc21 (stereo not drawn)    2.033
3  CCOC(=O)OC(CC)OC(=O)C1CCn2c(C(=O)c3ccccc3)ccc21 (stereo not drawn)    1.727
4  CCC(=O)OC(CC)OC(=O)C1CCn2c(C(=O)c3ccccc3)ccc21 (stereo not drawn)        0
5  CC(C)OC(=O)OC(C)OC(=O)C1CCn2c(C(=O)c3ccccc3)ccc21 (stereo not drawn)    1.050
6  CC(C)OC(=O)C1CCn2c(C(=O)c3ccccc3)ccc21 (stereo not drawn) [N11, reference compound]        0

* * *

- Measurement description: Stability study of levorotatory enantiomer of compounds in solvent (MCT)
- Type: physicochemical
- Condition notes: dextrorotatory form, MCT solution, 60° C., Day 15
Quantity kind: Isomer (%)

> print(dat)
                                   compound  quantity.kind  u  reading
1  CCC(OC(=O)OC(C)C)OC(=O)[C@H]1CCn2c(C(=O)c3ccccc3)ccc21 (stereo partly drawn) [N16(S)]     Isomer (%)  %     2.61
2  CCOC(=O)OC(C)OC(=O)[C@H]1CCn2c(C(=O)c3ccccc3)ccc21 (stereo partly drawn) [N12(S)]     Isomer (%)  %      3.1
3  CC(C)OC(=O)OC(C)OC(=O)[C@H]1CCn2c(C(=O)c3ccccc3)ccc21 (stereo partly drawn) [N2(S)]     Isomer (%)  %     5.89
4  CCOC(=O)OC(CC)OC(=O)[C@H]1CCn2c(C(=O)c3ccccc3)ccc21 (stereo partly drawn) [N15(S)]     Isomer (%)  %     4.75

* * *

- Measurement description: High temperature stability study of compounds (60° C.)
- Type: physicochemical
- Condition notes: related substance, in the dark, Day 0
- Protocol: Test protocol: the compounds prepared in the present disclosure were placed in a colorless and transparent vial, placed in the dark at a high temperature (60° C.), and were sampled for day 0, day 5 and day 10, respectively, and the purity of the compounds and the change of the related substance (ketorolac) were determined.
Hi, to clarify the labels: 1 covers Ketorolac (%) from 0.1% upward, -1 covers anything below 0.1%.

> print(dat)
                                   molecule  assigned.category
1  CCC(=O)OC(C)OC(=O)C1CCn2c(C(=O)c3ccccc3)ccc21 (stereo not drawn)                  1
2  CCOC(=O)OC(OC(=O)C1CCn2c(C(=O)c3ccccc3)ccc21)C(C)C (stereo not drawn)                 -1
3  CC(OC(=O)C(C)C)OC(=O)C1CCn2c(C(=O)c3ccccc3)ccc21 (stereo not drawn)                  1
4  CC(OC(=O)C1CCn2c(C(=O)c3ccccc3)ccc21)OC(=O)C(C)(C)C (stereo not drawn)                  1
5  CC(C)OC(=O)OC(OC(=O)C1CCn2c(C(=O)c3ccccc3)ccc21)C(C)C (stereo not drawn)                 -1
6  CCC(OC(=O)OC(C)C)OC(=O)C1CCn2c(C(=O)c3ccccc3)ccc21 (stereo not drawn)                 -1
7  CCC(=O)OC(OC(=O)C1CCn2c(C(=O)c3ccccc3)ccc21)C(C)C (stereo not drawn)                  1
8  CCOC(=O)OC(CC)OC(=O)C1CCn2c(C(=O)c3ccccc3)ccc21 (stereo not drawn)                 -1
9  CC(=O)OC(OC(=O)C1CCn2c(C(=O)c3ccccc3)ccc21)C(C)C (stereo not drawn)                  1

* * *

- Measurement description: High temperature stability study of compounds (60° C.)
- Assay type: physicochemical
- Condition notes: in the dark, Day 10
Quantity kind: Total main peak purity (%)

> print(dat)
                                    compound               quantity.kind  u  reading
 1  CC(OC(=O)OC1CCCCC1)OC(=O)C1CCn2c(C(=O)c3ccccc3)ccc21 (centres unmarked)  Total main peak purity (%)  %    94.41
 2  CCC(=O)OC(OC(=O)C1CCn2c(C(=O)c3ccccc3)ccc21)C(C)C (centres unmarked)  Total main peak purity (%)  %    95.21
 3  CCC(=O)OC(C)OC(=O)C1CCn2c(C(=O)c3ccccc3)ccc21 (centres unmarked)  Total main peak purity (%)  %    98.04
 4  CCOC(=O)OC(CC)OC(=O)C1CCn2c(C(=O)c3ccccc3)ccc21 (centres unmarked)  Total main peak purity (%)  %    95.59
 5  CC(OC(=O)C(C)C)OC(=O)C1CCn2c(C(=O)c3ccccc3)ccc21 (centres unmarked)  Total main peak purity (%)  %    90.22
 6  CC(=O)OC(OC(=O)C1CCn2c(C(=O)c3ccccc3)ccc21)C(C)C (centres unmarked)  Total main peak purity (%)  %    97.37
 7  CCC(OC(C)=O)OC(=O)C1CCn2c(C(=O)c3ccccc3)ccc21 (centres unmarked)  Total main peak purity (%)  %    90.36
 8  CCOC(=O)OC(C)OC(=O)C1CCn2c(C(=O)c3ccccc3)ccc21 (centres unmarked)  Total main peak purity (%)  %    93.36
 9  CCC(OC(=O)OC(C)C)OC(=O)C1CCn2c(C(=O)c3ccccc3)ccc21 (centres unmarked)  Total main peak purity (%)  %    96.16
10  CC(OC(=O)C1CCn2c(C(=O)c3ccccc3)ccc21)OC(=O)C(C)(C)C (centres unmarked)  Total main peak purity (%)  %    88.59
11  CC(C)OC(=O)OC(C)OC(=O)C1CCn2c(C(=O)c3ccccc3)ccc21 (centres unmarked)  Total main peak purity (%)  %    94.82
12  CCC(=O)OC(CC)OC(=O)C1CCn2c(C(=O)c3ccccc3)ccc21 (centres unmarked)  Total main peak purity (%)  %    92.34
13  CCOC(=O)OC(OC(=O)C1CCn2c(C(=O)c3ccccc3)ccc21)C(C)C (centres unmarked)  Total main peak purity (%)  %    91.78
14  CC(C)OC(=O)OC(OC(=O)C1CCn2c(C(=O)c3ccccc3)ccc21)C(C)C (centres unmarked)  Total main peak purity (%)  %    94.41

* * *

- Measurement description: Stability study of levorotatory enantiomer of compounds in solvent (MCT)
- Type: physicochemical
- Condition notes: MCT solution, 25° C., Day 5
Purity (%) overview
Quantity kind: Purity (%)

> print(dat)
                                   compound  u  reading
1  CCC(OC(=O)OC(C)C)OC(=O)[C@H]1CCn2c(C(=O)c3ccccc3)ccc21 (stereo partly drawn) [N16(S)]  %    99.52
2  CCOC(=O)OC(CC)OC(=O)[C@H]1CCn2c(C(=O)c3ccccc3)ccc21 (stereo partly drawn) [N15(S)]  %    99.42
3  CC(C)OC(=O)OC(C)OC(=O)[C@H]1CCn2c(C(=O)c3ccccc3)ccc21 (stereo partly drawn) [N2(S)]  %    99.08
4  CCOC(=O)OC(C)OC(=O)[C@H]1CCn2c(C(=O)c3ccccc3)ccc21 (stereo partly drawn) [N12(S)]  %    99.59

* * *

Purity (%) overview
- Measurement description: Stability study of levorotatory enantiomer of compounds in solvent (MCT)
- Format: physicochemical
- Condition notes: MCT solution, 25° C., Day 30
- Method: 2. Test method: the samples were prepared according to Table 2, wherein each sample was dispensed into 10 vials according to the lofting volume, and the samples were lofted according to Table 3. 4. The related substance was determined according to high performance liquid chromatography (General Chapter 0512, China Pharmacopoeia, 2015 Edition). […]
Quantity kind: Purity (%)

> print(dat)
                                   molecule  u  reading
1  CCOC(=O)OC(CC)OC(=O)[C@H]1CCn2c(C(=O)c3ccccc3)ccc21 (stereo partly drawn) [N15(S)]  %    99.33
2  CCOC(=O)OC(C)OC(=O)[C@H]1CCn2c(C(=O)c3ccccc3)ccc21 (stereo partly drawn) [N12(S)]  %    99.49
3  CC(C)OC(=O)OC(C)OC(=O)[C@H]1CCn2c(C(=O)c3ccccc3)ccc21 (stereo partly drawn) [N2(S)]  %    98.95
4  CCC(OC(=O)OC(C)C)OC(=O)[C@H]1CCn2c(C(=O)c3ccccc3)ccc21 (stereo partly drawn) [N16(S)]  %    99.48
